- Test system: PopD F7 M-833 resistant clone (PfSTART1 N309K)
- ASSAY PROCEDURE: Growth inhibition assay (72 h, LDH activity)
- Format: cell-based, Plasmodium falciparum
- PROTOCOL CONDITIONS: Plasmodium falciparum, read-out: EC50 (95% confidence interval)
REPORTED METRIC: EC50 (nM)
The answer is to be given in nM; state only the numeric part.

Query :: State EC50 on PopD F7 M-833 resistant clone (PfSTART1 N309K). Entry: Cc1cc(Cl)c(S(=O)(=O)N2CCCC2)cc1OCC(=O)NC1CCCCC1 [M-833]
Result :: 2970

====

- Test system: PopE-F10 M-833 resistant clone (PfSTART1 N330K)
- ASSAY PROCEDURE: Growth inhibition assay (72 h, LDH activity)
- Assay type: cell-based, Plasmodium falciparum
- PROTOCOL CONDITIONS: Plasmodium falciparum, 72 h, Supplementary Table 1; PopE-F10 (N330K); 72 h; read-out: EC50
REPORTED METRIC: EC50

Query :: Please give the documented EC50 of CC(C)(Nc1ccc(Cl)c(S(=O)(=O)N2CCOCC2)c1)C(=O)Nc1ccc(F)c(Cl)c1
Result :: > 0.2 µM

====

- System: 3D7 P. falciparum parasites
- ASSAY PROCEDURE: Growth inhibition assay (72 h, LDH activity)
- Format: cell-based, Plasmodium falciparum
- PROTOCOL CONDITIONS: Plasmodium falciparum, 3D7, text on structure activity relationship (Fig 4A); read-out: EC50, antiparasitic activity
In this section, each of the molecules is paired with its reported EC50.
Give the number; nM is assumed, so skip it.

{"STRUCTURE SMILES": "CC(C)(Oc1ccc(Cl)c(S(=O)(=O)N2CCOCC2)c1)C(=O)Nc1ccc(F)c(Cl)c1", "EC50 / nM": 120}

The record that follows has no EC50 shown yet.
Query :: Quote 3D7 P. falciparum parasites EC50 for entry CC(C)(Nc1ccc(Cl)c(S(=O)(=O)N2CCOCC2)c1)C(=O)Nc1ccc(F)c(Cl)c1 .
Result :: 7

====

- Test system: CR-N309K parasites
- ASSAY PROCEDURE: Growth inhibition assay (72 h, LDH activity)
- Type: cell-based, Plasmodium falciparum
- PROTOCOL CONDITIONS: Plasmodium falciparum, read-out: EC50 M-833 (95% confidence interval), Fig 3F, 0.25 mM GlcN, n = 3
REPORTED METRIC: EC50 (nM)
Form entry: value (nM) — number only.

Query :: Using known records, supply EC50 for Cc1cc(Cl)c(S(=O)(=O)N2CCCC2)cc1OCC(=O)NC1CCCCC1
Result :: 2180

====

- Tested on: 3D7 P. falciparum parasites
- ASSAY PROCEDURE: Growth inhibition assay (72 h, LDH activity)
- Assay type: cell-based, Plasmodium falciparum
- PROTOCOL CONDITIONS: Plasmodium falciparum, 3D7, 72 h, Supplementary Table 1; 3D7; 72 h; read-out: EC50
- Method: Parasite growth assays with inhibitory compounds were performed as per[11] and are fully described in the Supplementary Information. […] Growth inhibition assays. Synchronised ring-stage parasites (0.3-0.6% parasitemia, 2% haematocrit) were grown for 72 h in a serial-dilution of the compound under […] and compound 4. […] Following a freeze -thaw cycle, lactate dehydrogenase (LDH) activity was assessed as an indicator of parasite growt h 5. […]
EC50 under 0.2 µM gets Y, anything at or over 0.2 µM gets N.

{"COMPOUND": "CC(C)(Oc1ccc(Cl)c(S(=O)(=O)N2CCOCC2)c1)C(=O)Nc1ccc(F)c(Cl)c1 [compound 3]", "ASSAYED SYSTEM": "3D7 P. falciparum parasites", "CLASS ASSIGNMENT": "Y"}
{"COMPOUND": "CC(C)(Nc1ccc(Cl)c(S(=O)(=O)N2CCOCC2)c1)C(=O)Nc1ccc(F)c(Cl)c1 [W-991]", "ASSAYED SYSTEM": "3D7 P. falciparum parasites", "CLASS ASSIGNMENT": "Y"}
{"COMPOUND": "CN(C(=O)C(C)(C)Nc1ccc(Cl)c(S(=O)(=O)N2CCOCC2)c1)c1ccc(F)c(Cl)c1 [compound 4]", "ASSAYED SYSTEM": "3D7 P. falciparum parasites", "CLASS ASSIGNMENT": "N"}
{"COMPOUND": "O=C(CNc1ccc(Cl)c(S(=O)(=O)N2CCOCC2)c1)Nc1ccc(F)c(Cl)c1 [compound 2, reference compound]", "ASSAYED SYSTEM": "3D7 P. falciparum parasites", "CLASS ASSIGNMENT": "Y"}

Then there is this compound:
Query :: State whether 0.2 µM exceeds EC50 recorded for Cc1cc(Cl)c(S(=O)(=O)N2CCCC2)cc1OCC(=O)NC1CCCCC1 [M-833] .
Result :: Y

====

- Test system: SLI-N330K parasites
- ASSAY PROCEDURE: Growth inhibition assay (72 h, LDH activity)
- Assay type: cell-based, Plasmodium falciparum
- PROTOCOL CONDITIONS: Plasmodium falciparum; Fig 2B; SLI-N330K; 72 h; n = 3; unit only in x-axis title; read-out: EC50 (95% confidence interval)
- Method: Parasite growth assays with inhibitory compounds were performed as per[11] and are fully described in the Supplementary Information. Molecular biology and transfection of P. falciparum: Selection Linked Integration […] and compound 4. […] Following a freeze -thaw cycle, lactate dehydrogenase (LDH) activity was assessed as an indicator of parasite growt h 5. […]
REPORTED METRIC: pEC50
// pEC50 here means minus log10 of the molar concentration (mol/L)

Query :: Give the value of pEC50 reported for the following: Cc1cc(Cl)c(S(=O)(=O)N2CCCC2)cc1OCC(=O)NC1CCCCC1 [M-833]
Result :: 5.20

====

- Test system: CR-N309K parasites
- ASSAY PROCEDURE: Growth inhibition assay (72 h, LDH activity)
- Assay type: cell-based, Plasmodium falciparum
- PROTOCOL CONDITIONS: Plasmodium falciparum, read-out: EC50 W-991 (95% confidence interval), Fig 4C, 0.25 mM GlcN, n = 3
REPORTED METRIC: pEC50
Field pEC50 (float): negative decimal logarithm of the concentration in molar.

Query :: Enter measured pEC50, system CR-N309K parasites, for the compound shown: CC(C)(Nc1ccc(Cl)c(S(=O)(=O)N2CCOCC2)c1)C(=O)Nc1ccc(F)c(Cl)c1
Result :: 6.44

====

Listed next: entries and their corresponding pEC50.
- Test system: PopD-D7 M-833 resistant clone (PfSTART1 N309K)
- ASSAY PROCEDURE: Growth inhibition assay (72 h, LDH activity)
- Type: cell-based, Plasmodium falciparum
- PROTOCOL CONDITIONS: Plasmodium falciparum; Supplementary Table 1; PopD-D7 (N309K); 72 h; read-out: EC50
In textbook form, pEC50 equals minus log to base ten of the concentration in mol/L.

Before answering, review these 2 worked examples.
{"STRUCTURE SMILES": "Cc1cc(Cl)c(S(=O)(=O)N2CCCC2)cc1OCC(=O)NC1CCCCC1", "pEC50": 5.31}
{"STRUCTURE SMILES": "CN(C(=O)C(C)(C)Nc1ccc(Cl)c(S(=O)(=O)N2CCOCC2)c1)c1ccc(F)c(Cl)c1", "pEC50": 4.80}

Now for a further compound.
Query :: GET pEC50 | system: PopD-D7 M-833 resistant clone (PfSTART1 N309K) | item: CC(C)(Oc1ccc(Cl)c(S(=O)(=O)N2CCOCC2)c1)C(=O)Nc1ccc(F)c(Cl)c1
Result :: 5.85

====

- Test system: SLI-N309K parasites
- ASSAY PROCEDURE: Growth inhibition assay (72 h, LDH activity)
- Assay type: cell-based, Plasmodium falciparum
- PROTOCOL CONDITIONS: Plasmodium falciparum, Fig 3C; SLI-N309K; 0 mM GlcN; n = 4; unit on plot axis; read-out: EC50 M-833 (95% confidence interval)
REPORTED METRIC: pEC50
Here pEC50 is given on a logarithmic scale as minus log10 of the concentration in mol/L.

Query :: // fetch pEC50 for Cc1cc(Cl)c(S(=O)(=O)N2CCCC2)cc1OCC(=O)NC1CCCCC1 ; system: SLI-N309K parasites
Result :: 5.79

====

- System: 3D7 P. falciparum parasites
- ASSAY PROCEDURE: Growth inhibition assay (72 h, LDH activity)
- Format: cell-based, Plasmodium falciparum
- PROTOCOL CONDITIONS: Plasmodium falciparum, 3D7, Fig 4C; 3D7; 0.25 mM GlcN; n = 3; read-out: EC50 W-991 (95% confidence interval)
REPORTED METRIC: EC50 (nM)
Write the value in nM as a bare number.

Query :: Give EC50 for the following molecule: CC(C)(Nc1ccc(Cl)c(S(=O)(=O)N2CCOCC2)c1)C(=O)Nc1ccc(F)c(Cl)c1
Result :: 0.908

Data origin, for the record: paper PMC11189555
